meta.source: patent US11254690B2

# Test target: T1, human PTEFb (CDK9/Cyclin T1) (Homo sapiens, UniProt P50750)
# T1 construct: purchased ProQinase, Freiburg, Germany
# T1 sequence (P50750 whole entry): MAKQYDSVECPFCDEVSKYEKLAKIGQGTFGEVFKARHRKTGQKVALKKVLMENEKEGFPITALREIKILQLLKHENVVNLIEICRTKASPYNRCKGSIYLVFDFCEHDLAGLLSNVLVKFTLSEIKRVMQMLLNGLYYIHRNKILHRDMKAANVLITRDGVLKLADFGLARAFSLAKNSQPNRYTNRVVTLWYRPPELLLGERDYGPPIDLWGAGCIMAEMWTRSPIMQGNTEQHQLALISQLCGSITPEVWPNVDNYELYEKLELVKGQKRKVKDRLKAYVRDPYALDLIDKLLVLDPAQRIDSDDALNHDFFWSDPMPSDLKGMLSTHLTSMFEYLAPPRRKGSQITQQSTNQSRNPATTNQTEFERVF
# T1 sequence (O60563 whole entry partner): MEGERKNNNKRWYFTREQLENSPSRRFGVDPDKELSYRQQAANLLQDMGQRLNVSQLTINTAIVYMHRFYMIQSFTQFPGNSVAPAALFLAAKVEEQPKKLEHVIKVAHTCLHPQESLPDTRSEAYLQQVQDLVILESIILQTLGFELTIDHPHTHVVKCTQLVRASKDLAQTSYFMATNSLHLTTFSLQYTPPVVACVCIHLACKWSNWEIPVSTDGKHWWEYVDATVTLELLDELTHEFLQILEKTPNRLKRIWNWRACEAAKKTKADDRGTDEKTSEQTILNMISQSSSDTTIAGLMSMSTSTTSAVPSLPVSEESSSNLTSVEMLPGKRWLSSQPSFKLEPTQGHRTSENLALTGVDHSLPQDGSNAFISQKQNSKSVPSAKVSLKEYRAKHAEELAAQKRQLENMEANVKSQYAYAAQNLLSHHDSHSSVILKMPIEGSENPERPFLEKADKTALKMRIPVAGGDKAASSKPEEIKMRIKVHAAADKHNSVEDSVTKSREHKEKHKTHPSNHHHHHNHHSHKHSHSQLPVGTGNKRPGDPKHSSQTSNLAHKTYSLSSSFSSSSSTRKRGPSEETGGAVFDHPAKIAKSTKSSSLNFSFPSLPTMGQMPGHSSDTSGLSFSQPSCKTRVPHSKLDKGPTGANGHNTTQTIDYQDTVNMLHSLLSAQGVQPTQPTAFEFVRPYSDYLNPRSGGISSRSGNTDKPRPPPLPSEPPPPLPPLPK
# Experiment summary: Surface Plasmon Resonance PTEFb
# Type: binding
# Measurement parameters: SPR, 37° C.; * = arithmetic means of more than one value; read-out: Equilibrium dissociation constant KD
pKd: −log10 of the molar value.
Readings of pKd for the listed molecules
Endpoint: pKd

1. CC1CCCCOc2cc(ccc2F)-c2cc(ncc2F)Nc2cc(CS(C)(=N)=O)cc(n2)O1 (single isomer, unassigned) [Example 21]: 9.00
2. CS(=N)(=O)Cc1cc2cc(c1)OCCCCOc1cc(ccc1F)-c1nc(ncc1F)N2 (racemic) [Example 4]: 8.92
3. CC1CCCOc2cc(ccc2F)-c2cc(ncc2F)Nc2cc(CS(C)(=N)=O)cc(n2)O1 (single isomer, unassigned) [Example 17]: 10.11
4. CS(=N)(=O)Cc1cc2nc(c1)OCCCCOc1cc(ccc1F)-c1cc(ncc1F)N2 (racemic) [Example 2]: 8.92
5. CC1CCCCOc2cc(ccc2F)-c2cc(ncc2F)Nc2cc(CS(C)(=N)=O)cc(n2)O1 (single isomer, unassigned) [Example 22]: 9.72

---

# Test target: CDK2/CycE (Homo sapiens, UniProt P24941)
# Construct: GST
# Experiment summary: CDK2/CycE high ATP kinase assay (TR-FRET, 2 mM ATP)
# Measurement parameters: Method 2b
Readings of IC50 for the listed molecules
Endpoint: IC50 (µM)

1. CC1CCCCOc2cc(ccc2F)-c2cc(ncc2F)Nc2cc(CS(C)(=O)=O)cc(n2)O1 (single isomer, unassigned) [Example 29]: 0.691
2. CSCc1cc2nc(c1)OC(C)CCCCOc1cc(ccc1F)-c1cc(ncc1F)N2 (single isomer, unassigned) [Example 20]: 12.6
3. CS(=N)(=O)Cc1cc2cc(c1)OCCCOc1cc(ccc1F)-c1nc(ncc1F)N2 (racemic): 4.75
4. CC1CCCOc2cc(ccc2F)-c2cc(ncc2F)Nc2cc(CS(C)(=N)=O)cc(n2)O1 (single isomer, unassigned) [Example 16]: 0.144
5. CSCc1cc2nc(c1)OC(C)CCCOc1cc(ccc1F)-c1cc(ncc1F)N2 (racemic) [Example 11]: 4.67
6. CSCc1cc2nc(c1)OC(C)CCCOc1cc(ccc1F)-c1cc(ncc1F)N2 (single isomer, unassigned) [Example 12]: 6.45
7. CC1CCCCOc2cc(ccc2F)-c2cc(ncc2F)Nc2cc(CS(C)(=N)=O)cc(n2)O1 (single isomer, unassigned) [Example 21]: 2.45
